# Tested on: N. carnea
# protocol-text: Kirby-Bauer disk diffusion susceptibility test; further: key: I = intermediate activity; S = susceptibility; R = Resistance
# Type: cell-based, Nocardia carnea
# protocol-conditions: N. carnea strain 40, isolation year 2011
assay-readout: Sensitivity or resistance of the strain to the antibiotic

INSERT INTO results (smiles_entry, result) VALUES
  ('CC[C@H]1OC(=O)[C@H](C)[C@@H](O[C@H]2C[C@@](C)(OC)[C@@H](O)[C@H](C)O2)[C@H](C)[C@@H](O[C@@H]2O[C@H](C)C[C@H](N(C)C)[C@H]2O)[C@](C)(O)C[C@@H](C)C(=O)[C@H](C)[C@@H](O)[C@]1(C)O', 'R'),
  ('NCC[C@H](O)C(=O)N[C@@H]1C[C@H](N)[C@@H](O[C@H]2O[C@H](CN)[C@@H](O)[C@H](O)[C@H]2O)[C@H](O)[C@H]1O[C@H]1O[C@H](CO)[C@@H](O)[C@H](N)[C@H]1O', 'R'),
  ('CO/N=C(\C(=O)N[C@@H]1C(=O)N2C(C(=O)O)=C(COC(C)=O)CS[C@H]12)c1csc(N)n1', 'S'),
  ('C[C@@H](O)[C@H]1C(=O)N2C(C(=O)O)=C(SCCN=CN)C[C@H]12', 'R'),
  ('CC(=O)NC[C@H]1CN(c2ccc(N3CCOCC3)c(F)c2)C(=O)O1', 'S');

###

# Tested on: S. aureus
# protocol-text: Kirby-Bauer disk diffusion susceptibility test; further: key: I = intermediate activity; S = susceptibility; R = Resistance
# Type: cell-based
# protocol-conditions: S. aureus strain 890, isolation year 2010
assay-readout: Sensitivity or resistance of the strain to the antibiotic

INSERT INTO assay_data (smiles_entry, result) VALUES
  ('CC[C@H]1OC(=O)[C@H](C)[C@@H](O[C@H]2C[C@@](C)(OC)[C@@H](O)[C@H](C)O2)[C@H](C)[C@@H](O[C@@H]2O[C@H](C)C[C@H](N(C)C)[C@H]2O)[C@](C)(O)C[C@@H](C)C(=O)[C@H](C)[C@@H](O)[C@]1(C)O', 'R'),
  ('CN(C)[C@@H]1C(O)=C(C(N)=O)C(=O)[C@@]2(O)C(O)=C3C(=O)c4c(O)cccc4[C@@](C)(O)[C@H]3C[C@@H]12', 'R'),
  ('CCC[C@@H]1C[C@@H](C(=O)N[C@@H]([C@H]2O[C@H](SC)[C@H](O)[C@@H](O)[C@H]2O)[C@H](C)Cl)N(C)C1', 'R'),
  ('NCC[C@H](O)C(=O)N[C@@H]1C[C@H](N)[C@@H](O[C@H]2O[C@H](CN)[C@@H](O)[C@H](O)[C@H]2O)[C@H](O)[C@H]1O[C@H]1O[C@H](CO)[C@@H](O)[C@H](N)[C@H]1O', 'S'),
  ('CN[C@H](CC(C)C)C(=O)N[C@H]1C(=O)N[C@@H](CC(N)=O)C(=O)N[C@H]2C(=O)N[C@H]3C(=O)N[C@H](C(=O)N[C@H](C(=O)O)c4cc(O)cc(O)c4-c4cc3ccc4O)[C@H](O)c3ccc(c(Cl)c3)Oc3cc2cc(c3O[C@@H]2O[C@H](CO)[C@@H](O)[C@H](O)[C@H]2O[C@H]2C[C@](C)(N)[C@H](O)[C@H](C)O2)Oc2ccc(cc2Cl)[C@H]1O', 'S');

###

# Tested on: N. cyriacigeorgica
# protocol-text: Kirby-Bauer disk diffusion susceptibility test; further: key: I = intermediate activity; S = susceptibility; R = Resistance
# Assay type: cell-based
# protocol-conditions: N cyriacigeorgica strain 199, isolation year 2005
assay-readout: Sensitivity or resistance of the strain to the antibiotic

INSERT INTO measurements (compound, result) VALUES
  ('CC[C@H]1OC(=O)[C@H](C)[C@@H](O[C@H]2C[C@@](C)(OC)[C@@H](O)[C@H](C)O2)[C@H](C)[C@@H](O[C@@H]2O[C@H](C)C[C@H](N(C)C)[C@H]2O)[C@](C)(O)C[C@@H](C)C(=O)[C@H](C)[C@@H](O)[C@]1(C)O [ERI, Erythromycin]', 'R'),
  ('NCC[C@H](O)C(=O)N[C@@H]1C[C@H](N)[C@@H](O[C@H]2O[C@H](CN)[C@@H](O)[C@H](O)[C@H]2O)[C@H](O)[C@H]1O[C@H]1O[C@H](CO)[C@@H](O)[C@H](N)[C@H]1O [AMK, Amikacin]', 'R'),
  ('C[C@@H](O)[C@H]1C(=O)N2C(C(=O)O)=C(SCCN=CN)C[C@H]12 [IMP, Imipenem]', 'R'),
  ('CO/N=C(\C(=O)N[C@@H]1C(=O)N2C(C(=O)O)=C(COC(C)=O)CS[C@H]12)c1csc(N)n1 [CTX, Cefotaxime]', 'R'),
  ('CC(=O)NC[C@H]1CN(c2ccc(N3CCOCC3)c(F)c2)C(=O)O1 [LIN, Linezolid]', 'S');

###

# protocol-text: Cellular viability (CellTiter Glo) in parallel to the anti-HIV assay
# Format: cell-based
# protocol-conditions: human; concentration required to kill 50% of cells; MT-2 cells; read-out: CC50 VIH MT-2
Form field: CC50 (one value per entry).
assay-readout: CC50 (µM)

INSERT INTO results (molecule, recorded_number) VALUES
  ('CCCCCC1=NN(C(=O)CCOC(=O)CCC(=O)O)OC(CCCCC)C1 (centres unmarked)', 8.2),
  ('CCCCCC1=NN(C(=O)CCOC(C)=O)OC(CCCCC)C1 (centres unmarked)', 7.72);

###

# Tested on: B. cereus
# protocol-text: Kirby-Bauer disk diffusion susceptibility test; further: key: I = intermediate activity; S = susceptibility; R = Resistance
# Format: cell-based, Bacillus cereus
# protocol-conditions: B. cereus strain 25, isolation year 2014
# Method: Bacterial strains, from clinical origin, were supplied by the National Center for Microbiology, Institute of Health Carlos III (Majadahonda, Madrid). They are detailed in Table I. Bacterial cells suspension in sterile saline was prepared from a culture of 24-72 h, depending on bacterial species, in Mueller-Hinton Agar with 5% sheep blood. […]
assay-readout: Sensitivity or resistance of the strain to the antibiotic

INSERT INTO results (compound, result) VALUES
  ('CC[C@H]1OC(=O)[C@H](C)[C@@H](O[C@H]2C[C@@](C)(OC)[C@@H](O)[C@H](C)O2)[C@H](C)[C@@H](O[C@@H]2O[C@H](C)C[C@H](N(C)C)[C@H]2O)[C@](C)(O)C[C@@H](C)C(=O)[C@H](C)[C@@H](O)[C@]1(C)O [ERI, Erythromycin]', 'R'),
  ('CN(C)[C@@H]1C(O)=C(C(N)=O)C(=O)[C@@]2(O)C(O)=C3C(=O)c4c(O)cccc4[C@@](C)(O)[C@H]3C[C@@H]12 [TET, Tetracycline]', 'R'),
  ('CN[C@H](CC(C)C)C(=O)N[C@H]1C(=O)N[C@@H](CC(N)=O)C(=O)N[C@H]2C(=O)N[C@H]3C(=O)N[C@H](C(=O)N[C@H](C(=O)O)c4cc(O)cc(O)c4-c4cc3ccc4O)[C@H](O)c3ccc(c(Cl)c3)Oc3cc2cc(c3O[C@@H]2O[C@H](CO)[C@@H](O)[C@H](O)[C@H]2O[C@H]2C[C@](C)(N)[C@H](O)[C@H](C)O2)Oc2ccc(cc2Cl)[C@H]1O [VAN, Vancomycin]', 'S'),
  ('CCC[C@@H]1C[C@@H](C(=O)N[C@@H]([C@H]2O[C@H](SC)[C@H](O)[C@@H](O)[C@H]2O)[C@H](C)Cl)N(C)C1 [CLI, Clindamycin]', 'R'),
  ('CO[C@H]1/C=C/O[C@@]2(C)Oc3c(C)c(O)c4c(O)c(c(/C=N/N5CCN(C)CC5)c(O)c4c3C2=O)NC(=O)/C(C)=C\C=C\[C@H](C)[C@H](O)[C@@H](C)[C@@H](O)[C@@H](C)[C@H](OC(C)=O)[C@@H]1C [RIF, Rifampicin]', 'S');

###

# Tested on: E. coli
# protocol-text: Kirby-Bauer disk diffusion susceptibility test; further: key: I = intermediate activity; S = susceptibility; R = Resistance
# Assay type: cell-based
# protocol-conditions: E. coli strain 305, isolation year 2008
assay-readout: Sensitivity or resistance of the strain to the antibiotic

INSERT INTO measurements (smiles_entry, result) VALUES
  ('CO/N=C(\C(=O)N[C@@H]1C(=O)N2C(C(=O)O)=C(COC(C)=O)CS[C@H]12)c1csc(N)n1', 'R'),
  ('C[C@@H](O)[C@H]1C(=O)N2C(C(=O)O)=C(SCCN=CN)C[C@H]12', 'S'),
  ('CC[C@H]1OC(=O)[C@H](C)[C@@H](O[C@H]2C[C@@](C)(OC)[C@@H](O)[C@H](C)O2)[C@H](C)[C@@H](O[C@@H]2O[C@H](C)C[C@H](N(C)C)[C@H]2O)[C@](C)(O)C[C@@H](C)C(=O)[C@H](C)[C@@H](O)[C@]1(C)O', 'S'),
  ('NCC[C@H](O)C(=O)N[C@@H]1C[C@H](N)[C@@H](O[C@H]2O[C@H](CN)[C@@H](O)[C@H](O)[C@H]2O)[C@H](O)[C@H]1O[C@H]1O[C@H](CO)[C@@H](O)[C@H](N)[C@H]1O', 'S');
